# targetEntity: Dual luciferase reporter (DLR) with N(ε)-acetyl-lysine at K529 of the Firefly enzyme
# Sequence (chain, as listed by the source): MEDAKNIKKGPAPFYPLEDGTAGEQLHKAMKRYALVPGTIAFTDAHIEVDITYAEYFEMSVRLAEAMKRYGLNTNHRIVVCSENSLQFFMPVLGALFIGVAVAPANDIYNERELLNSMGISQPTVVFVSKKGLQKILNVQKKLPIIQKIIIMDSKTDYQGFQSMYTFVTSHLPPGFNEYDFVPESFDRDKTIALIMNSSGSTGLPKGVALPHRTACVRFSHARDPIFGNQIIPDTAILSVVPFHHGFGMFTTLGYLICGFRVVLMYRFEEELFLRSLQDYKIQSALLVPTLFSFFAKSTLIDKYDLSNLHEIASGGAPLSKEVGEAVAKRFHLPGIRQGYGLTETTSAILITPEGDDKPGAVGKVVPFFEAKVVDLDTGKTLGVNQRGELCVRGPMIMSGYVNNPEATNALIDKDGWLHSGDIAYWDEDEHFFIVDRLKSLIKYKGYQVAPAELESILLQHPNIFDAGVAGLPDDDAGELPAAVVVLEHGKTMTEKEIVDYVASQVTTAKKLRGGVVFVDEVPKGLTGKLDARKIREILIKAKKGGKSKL
experimentalReadout: DLR activity [rel. to wild-type] (rel. to wild-type)

[
  {
    "protein": "Debocylase-1 (protein) KPRVLVLTGAGISAESGIRTFRAADGLWEEHRVEDVATPEGFDRDPELVQAFYNARRRQLQQPEIQPNAAHLALAKLQDALGDRFLLVTQNVDNLHERAGNTNVIHMHGELLKVRCSQSGQVLDWTGDVTPEDKCHCCQFPAPLRPHLVWFGEMPLGMDEIYMALSMADIFIAIGTSGHVYPAAGFVHEAKLHGAHTVELNLEPSQVGNEFAEKYYGPASQVVPEFVEKLLKGLKAGSIA",
    "dataValue": 1.25
  },
  {
    "protein": "Decrotonylase-1 (protein) KPRVLVLTGAGISAESGIRTFRAADGLWEEHRVEDVRTPEGFDRDPELVQAFGNATRRQLQQPEIQPNAAHLALAKLQDALGDRFLLVTQNRDNLHERAGNTNVIHMHGELLKVRCSQSGQVLDWTGDVTPEDKCHCCQFPAPLRPHLVWFGEMPLGMDEIYMALSMADIFIAIGTSGHVYPAAGFVHEAKLHGAHTVELNLEPSQVGNEFAEKYYGPASQVVPEFVEKLLKGLKAGSIA",
    "dataValue": 0
  },
  {
    "protein": "Dealocase-1 (protein) KPRVLVLTGAGISAESGIRTFRAADGLWEEHRVEDVSTPEGFDRDPELVQAFWNAWRRQLQQPEIQPNAAHLALAKLQDALGDRFLLVTQNVDNLHERAGNTNVIHMHGELLKVRCSQSGQVLDWTGDVTPEDKCHCCQFPAPLRPHVVWFGEMPLGMDEIYMALSMADIFIAIGTSGHVYPAAGFVHEAKLHGAHTVELNLEPSQVGNEFAEKYYGPASQVVPEFVEKLLKGLKAGSIA",
    "dataValue": 0.49
  },
  {
    "protein": "Dealocase-3 (protein) KPRVLVLTGAGISAESGIRTFRAADGLWEEHRVEDVATPEGFDRDPELVQAFYNARRRQLQQPEIQPNAAHLALAKLQDALGDRFLLVTQNSDNLHERAGNTNVIHMHGELLKVRCSQSGQVLDWTGDVTPEDKCHCCQFPAPLRPHLVWFGEMPLGMDEIYMALSMADIFIAIGTSGHVYPAAGFVHEAKLHGAHTVELNLEPSQVGNEFAEKYYGPASQVVPEFVEKLLKGLKAGSIA",
    "dataValue": 0.35
  }
]
